Reference source for all entries: PubChem BioAssay (NCI)

Test system: ACHN renal
experimental.details: NCI tumour cell line growth inhibition, 48 h; in the data active = GI50 below about 0.43 µM; inactive = the rest
Thanks in advance; please answer with one of these: 1 (yes) for active, 0 (no) for inactive

[
  {
    "compound": "COC(=O)C1=C2C3=C(C(=O)c4ccccc4C3=O)N(Cc3ccccc3)C2(OC(C)=O)C=CC1=O (stereo unspecified)",
    "study.system": "ACHN renal",
    "category": "0 (no)"
  },
  {
    "compound": "CCCCC(SC(=S)N(CC)CC)C(=O)Nc1nc(CC(=O)OCC)cs1 (stereo unspecified)",
    "study.system": "ACHN renal",
    "category": "0 (no)"
  },
  {
    "compound": "COC(=O)C1=C(C(=O)Nc2cccnc2)C2OC1(C(Cc1ccccc1)Oc1ccccc1)C1OC21 (stereo unspecified)",
    "study.system": "ACHN renal",
    "category": "0 (no)"
  },
  {
    "compound": "Cc1nc(NC(=O)COc2cccc(/C=C3\\COc4ccccc4C3=O)c2)sc1C",
    "study.system": "ACHN renal",
    "category": "0 (no)"
  },
  {
    "compound": "COc1ccc(C2=C(Br)C(=O)OC2)cc1Cl",
    "study.system": "ACHN renal",
    "category": "0 (no)"
  }
]

Consider the record given below.
Please share the test call associated with CCCCCCCCCCCCCCCCCC(=O)[O][Sn]([CH2]CCC)([CH2]CCC)[CH2]CCC .
1 (yes)

* * *

Tested on: DU-145 prostate
experimental.details: NCI tumour cell line growth inhibition, 48 h
Reported TGI is given for each of the following compounds.

[
  {
    "compound": "Cc1nc2ccc(N=Nc3c(O)ccc4ccccc34)cc2[nH]1",
    "TGI": "> 100 µM"
  },
  {
    "compound": "C=CC1(c2ccc(Cl)c(Cl)c2)OCCO1",
    "TGI": "> 100 µM"
  },
  {
    "compound": "COc1cc(/C=C2\\N=C(c3ccccc3)N(c3nc4c(Cl)cc(Cl)cc4s3)C2=O)ccc1O",
    "TGI": "> 100 µM"
  },
  {
    "compound": "COc1ccc(Cc2nc3cc(Cl)ccc3o2)cc1",
    "TGI": "> 100 µM"
  },
  {
    "compound": "COc1ccc(S(=O)(=O)Nc2cc(/C=C\\c3cc(OC)c(OC)c(OC)c3)cc(OC)c2OC)cc1OC",
    "TGI": "> 100 µM"
  }
]

Which TGI reading was recorded for the compound COc1ccc(Cc2cc(OC)c(OC)c(OC)c2)cc1O ?
> 100 µM

Same read-out for CCC(C#N)N(Cc1ccc(CN(C(=O)c2ccccc2)C(C#N)CC)cc1)C(=O)c1ccccc1 (configuration not stated) ?
> 100 µM

Same read-out for O=[n+]1cnn([O-])c2ccccc21 ?
> 100 µM

Same read-out for N#Cc1cc(-c2ccccc2)[nH]c1-c1nccc2ccccc12 ?
> 100 µM

Same read-out for C[CH2][Sn]1([CH2]C)[O]C2C(O)OC(CO)C(O)C2[O]1 (configuration not stated) ?
> 100 µM

Same read-out for O=C(CN1CCOCC1)c1ccc2[nH]c(=O)oc2c1 ?
> 100 µM

Same read-out for CCOC(=O)c1c(Nc2ccccc2)sc2cccnc12 ?
> 69.7 µM

Same read-out for CC(C)(C)OC(=O)N1C(C2=COc3ccccc3O2)=COc2cccnc21 ?
2.76 µM

Same read-out for CC(C)=CCC/C(C)=C/CC/C(C)=C/[C@@H]1[C@@H](CO)[C@]1(C)CC/C=C(\C)CCC=C(C)C ?
> 100 µM

Same read-out for C=C1C(=O)O[C@H]2[C@H]1CC/C(COC(=O)NCc1c[nH]c3ccc(OC)cc13)=C\CC[C@@]1(C)O[C@@H]21 ?
2.83 µM

* * *

Tested on: SF-539 CNS
experimental.details: NCI tumour cell line growth inhibition, 48 h
Reported TGI is given for each of the following compounds.

Illustrative cases are given below, each with its answer.
[
  {
    "compound": "CC(C)c1ccc2c(c1)[C@@]1(C)CC[C@H](C)C(C)(C)C1CC2 (some centres not stated)",
    "study.system": "SF-539 CNS",
    "val": "39.6 µM"
  },
  {
    "compound": "O=C1OC(C2Cc3cc4c(cc3C2=O)CCC4)c2ccccc21 (configuration not stated)",
    "study.system": "SF-539 CNS",
    "val": "80.4 µM"
  },
  {
    "compound": "NC(Cc1cc(Br)c(O)c(Br)c1)C(=O)O (configuration not stated)",
    "study.system": "SF-539 CNS",
    "val": "> 100 µM"
  },
  {
    "compound": "CC1C(=O)CCC1C(Sc1ccccc1)(Sc1ccccc1)Sc1ccccc1 (configuration not stated)",
    "study.system": "SF-539 CNS",
    "val": "35.1 µM"
  },
  {
    "compound": "COc1c(Nc2ncc(Cl)c(N[C@@H]3[C@H]4C=CC(C4)[C@@H]3C(N)=O)n2)ccc2c1CC[C@@H](N1CCOCC1)CC2",
    "study.system": "SF-539 CNS",
    "val": "8.01 µM"
  },
  {
    "compound": "COc1cc(O)c2c(=O)c3ccccc3n(C)c2c1",
    "study.system": "SF-539 CNS",
    "val": "> 100 µM"
  }
]

Which TGI reading was recorded for the compound COc1ccc2cc(-c3ccc(OC)c(OC)c3)c(=O)oc2c1 ?
> 100 µM

Same read-out for CCOC(=O)c1c(N2CCOCC2)[nH]c(=O)c(C(c2c(O)c(C(=O)OCC)c(N3CCOCC3)[nH]c2=O)C(C)C)c1O ?
> 100 µM

Same read-out for CCOC(=O)C(=CNC(Cc1c[nH]c2ccccc12)C(=O)OC)C(=O)OCC (configuration not stated) ?
> 100 µM

Same read-out for COc1cccc(N=N/C(=N/NC(=O)c2cc(Cl)ccc2O)c2ccc(N(CCC#N)CCC#N)cc2C)c1 ?
> 100 µM

Same read-out for Cc1cc2c(cc1Cl)SC(NN(C)C)=NS2(=O)=O ?
> 10 µM

Same read-out for NNC(=O)CC(=O)Nc1ccc(C(=O)O)cc1 ?
> 100 µM

* * *

System: SK-OV-3 ovarian
experimental.details: NCI tumour cell line growth inhibition, 48 h
Reported TGI is given for each of the following molecules.

[
  {
    "molecule": "Cc1cc(N2CCOCC2)nc(N(CCCNc2ccnc3cc(Cl)ccc23)Cc2ccc3c(c2)OCO3)n1",
    "test.readout": "TGI",
    "val": "4.54 µM"
  },
  {
    "molecule": "O=C(O)c1ccc([N+](=O)[O-])c(P(=O)(O)O)c1",
    "test.readout": "TGI",
    "val": "> 100 µM"
  },
  {
    "molecule": "Cc1cc(C)nc(NC(=S)Nc2cccc(Cl)c2)c1",
    "test.readout": "TGI",
    "val": "> 100 µM"
  },
  {
    "molecule": "CCCCC(SC(=S)N(CC)CC)C(=O)Nc1nc(CC(=O)OCC)cs1 (centres undefined)",
    "test.readout": "TGI",
    "val": "> 100 µM"
  },
  {
    "molecule": "COC(=O)C1C(=O)O[C@@H](c2ccc(OC)cc2)C1C(=O)OC (some centres undefined)",
    "test.readout": "TGI",
    "val": "> 100 µM"
  },
  {
    "molecule": "CN(C)C/C=C(/c1ccc(Br)cc1)c1cccnc1",
    "test.readout": "TGI",
    "val": "> 100 µM"
  },
  {
    "molecule": "CCCCCCOC(=O)C(N)Cc1ccc(OC)cc1 (centres undefined)",
    "test.readout": "TGI",
    "val": "> 100 µM"
  },
  {
    "molecule": "COc1cc(-c2nn(C)nc2-c2cc3ccccc3s2)cc(OC)c1OC",
    "test.readout": "TGI",
    "val": "> 100 µM"
  }
]

Which TGI reading was recorded for the molecule C=C1C(=O)O[C@H]2[C@H]1CC/C(COC(=O)NCc1c[nH]c3ccc(OC)cc13)=C\CC[C@@]1(C)O[C@@H]21 ?
25.2 µM

Same read-out for COC(=O)C1=C(O)C(C(=O)OC)[C@]2(O)[C@H](C(=O)OC)[C@H]1C[C@@H](c1ccccc1OC)[C@H]2C(=O)OC (some centres undefined) ?
> 50.9 µM

Same read-out for COC(=O)C(CCC1(C)OCCO1)C(C)=O (centres undefined) ?
> 100 µM

Same read-out for Cc1ccccc1NC(=O)N/C(N)=N/c1nc2ccccc2s1 ?
> 100 µM

Same read-out for COC(=O)c1c(O)ccc2c1c1c(n2Cc2ccccn2)C(=O)c2ccccc2C1 ?
> 100 µM

Same read-out for N#Cc1cc(-c2ccccc2)[nH]c1-c1nccc2ccccc12 ?
> 100 µM

Same read-out for COC1=C(C)C(=O)C2C(C1=O)C(c1ccc(OC)c(OC)c1)[C@H]2C (some centres undefined) ?
> 100 µM

Same read-out for O=C(/C=C/c1ccccc1O)c1ccccc1 ?
> 100 µM

Same read-out for COc1ccc(Cc2nc3cc(Cl)ccc3o2)cc1 ?
> 100 µM

Same read-out for O=C1OCC2=C1C(c1cccc([N+](=O)[O-])c1)c1cc3c(cc1N2CCO)CCC3 (centres undefined) ?
> 50 µM

Same read-out for Oc1c(Cl)cc(C(c2cc(Cl)c(O)c(Cl)c2)C(c2cc(Cl)c(O)c(Cl)c2)c2cc(Cl)c(O)c(Cl)c2)cc1Cl ?
23.4 µM

Same read-out for Nc1ccccc1S(=O)c1ccccc1 (centres undefined) ?
> 100 µM

Same read-out for CC(C)(C)c1ccc(O)c(Br)c1 ?
> 100 µM
